Numbers sourced from PubChem BioAssay (NCI).

Below, each of the molecules is paired with its reported TGI value.
Tested on: HS 578T breast
PROCEDURE DETAILS: NCI tumour cell line growth inhibition, 48 h
Please reply with the bare figure in µM and do not write the unit itself.

Sample answers from the record:
{"MOLECULE": "CCOC(=O)/C(=C\\NCC(O)c1ccccc1)c1nc2ccccc2[nH]1 (stereo not given)", "TGI (µM)": 39.5}
{"MOLECULE": "C=CC[C@H]1[C@@H](O[Si](C)(C)C(C)(C)C)[C@H](n2ccc(=O)[nH]c2=O)O[C@@H]1CO[Si](C)(C)C(C)(C)C", "TGI (µM)": 12.2}
{"MOLECULE": "c1ccc(CNc2c3c(nc4ccccc24)CCC3)cc1", "TGI (µM)": 65.5}

Incoming: Which value of TGI has been reported for `O=[N+]([O-])c1ccc(C(c2c[nH]c3ccccc23)c2c[nH]c3ccccc23)cc1` in the records?
Outgoing: 51.1

====

Tested on: NCI/ADR-RES ovarian
PROCEDURE DETAILS: NCI tumour cell line growth inhibition, 48 h; in the data active = GI50 below about 0.43 µM; inactive = the rest
Hello, when you answer, please use one of the following outcomes: 1 (yes) for active, 0 (no) for inactive

See these solved cases before continuing.
{"COMPOUND": "COC(=O)N[C@H]1CCc2c(Br)c(OC)c(OC)c(OC)c2-c2ccc(SC)c(=O)cc21", "ASSIGNED CATEGORY": "1 (yes)"}
{"COMPOUND": "COc1cc2c(cc1OC)C(=O)/C(=C/c1cccc(OCC(=O)c3ccccc3)c1)C2", "ASSIGNED CATEGORY": "0 (no)"}
{"COMPOUND": "COc1ccc(N=C2CSc3nnc(-c4cc(F)c(Cl)cc4Cl)n3N2)cc1", "ASSIGNED CATEGORY": "0 (no)"}
{"COMPOUND": "O=C(Nc1ccc(N2CCNCC2)cc1)c1[nH]ncc1Nc1ncnc2sc3c(c12)CCC3", "ASSIGNED CATEGORY": "0 (no)"}
{"COMPOUND": "O=C(NNc1nc(Cl)nc(N2CCN(C(c3ccccc3)c3ccccc3)CC2)n1)c1ccccc1", "ASSIGNED CATEGORY": "0 (no)"}

Incoming: Look up the recorded call for C=C1CC2(OC1=O)C(=O)N(CCCCCCCN1C(=O)C3(CC(=C)C(=O)O3)c3ccccc31)c1ccccc12 (configuration not stated) in this test.
Outgoing: 0 (no)

Incoming: Which outcome did this test record for the compound CNC(=O)c1cc(OC2CCC(NC(=O)Nc3ccc(Cl)c(C(F)(F)F)c3)CC2)ccn1 (configuration not stated) ?
Outgoing: 0 (no)

Incoming: For this compound, state the assay outcome: `Cc1c2c(nn1-c1ccc(S(=O)(=O)NC(=S)Nc3ccccc3)cc1)-c1ccccc1CC2`
Outgoing: 0 (no)

Incoming: Status in this test for `CCC[CH2][Sn-]([CH2]CCC)([CH2]CCC)[O]c1cc(Cl)c(Cl)cc1Cl` ?
Outgoing: 1 (yes)

Incoming: Could you check what this test reported for `CCOC(=O)c1c2c(n3ccc(NC(=O)CCN4CCCC4)cc13)C(=O)c1ncccc1C2=O` ?
Outgoing: 0 (no)

Incoming: Kindly provide the recorded test outcome for the following compound: `O=C(CCCCCCSc1nc(-c2ccccc2)cc(-c2ccc(Cl)cc2)n1)NO`
Outgoing: 0 (no)

Incoming: Identify the outcome logged in this assay for the compound shown: `COc1ccc2c(c1)/C(=C\c1c(C)nc3sc(C)cn13)C(=O)N2C`
Outgoing: 0 (no)

====

Each record here notes measured TGI.
System: HT29 colon
PROCEDURE DETAILS: NCI tumour cell line growth inhibition, 48 h

Some solved entries appear below for comparison.
{"COMPOUND": "COc1cc2c3cc1Oc1c(O)c(OC)cc4c1[C@H](Cc1ccc(cc1)Oc1cc(ccc1O)C[C@H]3N(C)CC2)N(C)CC4", "TGI": "18.5 µM"}
{"COMPOUND": "O=C(Nc1ccccc1F)c1c(O)nc2sccn2c1=O", "TGI": "> 10 µM"}
{"COMPOUND": "COC(=O)C12Oc3ccc(-c4ccc5c(c4O)C(=O)C4=CCC(C)C(O)C4(C(=O)OC)O5)c(O)c3C(=O)C1=CCC(C)C2O (stereo not given)", "TGI": "4.61 µM"}
{"COMPOUND": "O=C(CSc1nc2ccccc2[nH]1)Nc1ccc(-c2nc3ccccc3s2)c(Cl)c1", "TGI": "> 100 µM"}
{"COMPOUND": "C=CCC(C)C12CCNC(Cc3ccc(O)cc31)C2C (stereo not given)", "TGI": "> 100 µM"}

Incoming: What does the data say about its TGI? Entry: `COC(=O)N[C@H]1CCc2c(Br)c(OC)c(OC)c(OC)c2-c2ccc(SC)c(=O)cc21`
Outgoing: 18.8 µM

Incoming: I would be grateful if you could share the reported TGI for `Cc1c(-c2c(C)c3ccccc3n2S(=O)(=O)c2ccccc2)n(S(=O)(=O)c2ccccc2)c2ccccc12` .
Outgoing: > 100 µM

Incoming: Sample `Cc1cnoc1NC1=CC(=O)C(=O)c2ccccc21` — what was its TGI?
Outgoing: 90 µM

====

System: SN12C renal
PROCEDURE DETAILS: NCI tumour cell line growth inhibition, 48 h; in the data active = GI50 below about 0.43 µM; inactive = the rest
Give one outcome, nothing more. List: active, inactive

Worked cases, answers included:
{"COMPOUND": "COc1nc(N(C)O)nc(N(C)O)n1", "ASSIGNED CATEGORY": "inactive"}
{"COMPOUND": "CS(=O)(=O)CCNCc1nc(-c2ccc3ncnc(Nc4ccc(F)c(Cl)c4)c3c2)cs1", "ASSIGNED CATEGORY": "inactive"}
{"COMPOUND": "COC(=O)N[C@H]1CCc2c(Br)c(OC)c(OC)c(OC)c2-c2ccc(SC)c(=O)cc21", "ASSIGNED CATEGORY": "active"}
{"COMPOUND": "Cc1c2c(nn1-c1ccc(S(=O)(=O)NC(=S)Nc3ccccc3)cc1)-c1ccccc1CC2", "ASSIGNED CATEGORY": "inactive"}
{"COMPOUND": "COc1ccc2cc(C(=O)/C=C/c3cc(OC)c(OC)c(OC)c3)ccc2c1", "ASSIGNED CATEGORY": "inactive"}
{"COMPOUND": "Cc1cc(-c2ncc(CC(=O)Nc3ccc(-c4cnccn4)cn3)cc2C)ccn1", "ASSIGNED CATEGORY": "inactive"}
{"COMPOUND": "CCOC(=O)c1ccc(NC(=O)N2CC(C)OC(C)C2)cc1 (stereo not drawn)", "ASSIGNED CATEGORY": "inactive"}
{"COMPOUND": "COc1cc(/C(C#N)=C/c2ccc3c(c2OC)OCO3)cc2c1OCO2", "ASSIGNED CATEGORY": "inactive"}
{"COMPOUND": "C=C1C(=O)O[C@H]2[C@H]1CC/C(COC(=O)c1cc3cc(F)ccc3[nH]1)=C\\CC[C@@]1(C)O[C@@H]21", "ASSIGNED CATEGORY": "inactive"}
{"COMPOUND": "COc1ccc(-c2nc3sc(C)cn3c2/C=C/C(=O)c2cc(OC)c(OC)c(OC)c2)cc1", "ASSIGNED CATEGORY": "inactive"}

Incoming: Which outcome did this test record for the compound `O=C1NCc2ccc3c(-c4cccc(Cl)c4)c[nH]c3c21` ?
Outgoing: inactive

====

Tested on: SNB-19 CNS
PROCEDURE DETAILS: NCI tumour cell line growth inhibition, 48 h
OBSERVATION TYPE: TGI

{"COMPOUND": "CC(=O)OC(Cc1cc(C=C(C(F)(F)F)C(F)(F)F)cc(C)n1)(C(F)(F)F)C(F)(F)F", "RESULT": "4.38 µM"}
{"COMPOUND": "Cn1c(=O)c2c(nc(NCCCCl)n2CC(=O)O)n(C)c1=O", "RESULT": "> 100 µM"}
{"COMPOUND": "O=C1C(Br)=CC2([N+](=O)[O-])CCNc3c(O)c4c5c(c3C2=C1Br)=NCCC=5C=N4 (centres undefined)", "RESULT": "9.72 µM"}
{"COMPOUND": "CCOc1cc2ncc(C#N)c(Nc3ccc(OCc4cccc(F)c4)c(Cl)c3)c2cc1NC(=O)CC1CCSS1 (centres undefined)", "RESULT": "> 25 µM"}
{"COMPOUND": "C=C1C(=O)O[C@H]2[C@H]1CC/C(Cn1cc(CNC(=O)Cc3cn(C(=O)c4ccc(Cl)cc4)c4ccc(OC)cc34)nn1)=C\\CC[C@@]1(C)O[C@@H]21", "RESULT": "4.77 µM"}

Incoming: Find the recorded TGI belonging to COC1C(O)CC(OC2C(C)OC(Oc3cc(O)c4c(O)c5c(cc4c3)C[C@@H]([C@H](OC)C(=O)[C@@H](O)[C@@H](C)O)[C@H](OC3CC(OC4CC(OC6CC(C)(O)C(O)C(C)O6)C(O)C(C)O4)C(O)C(C)O3)C5=O)CC2OC(C)=O)OC1C (some centres undefined) and report it.
Outgoing: > 100 µM

Incoming: What TGI value was documented for this compound, `CC(=O)NNc1nc(C)c(C(/C=C/c2ccc3c(c2)OCO3)=N/Nc2ccccc2)s1` ?
Outgoing: > 100 µM

Incoming: Would you kindly share the measured TGI for `COc1ccc2[nH]c3c(c2c1)CCN(C)CC3` ?
Outgoing: > 100 µM
